Source: ChEMBL document CHEMBL1137340

molecular target: UniProt:P23795
Response field class: string, computed from recorded IC50 by ranges lower range = under 30 nM, middle range = from 30 nM up to 1000 nM, upper range = 1000 nM and over

* CC12CC3Cc4nc5cc(Cl)ccc5c(N)c4C(C1)C3N2 (racemic) | upper range
* CC12CC3Cc4nc5cc(Cl)ccc5c(N)c4C(C1)C3N2S(C)(=O)=O (racemic) | upper range
* CCC1=C[C@@H]2Cc3nc4cc(Cl)ccc4c(N)c3[C@H](C1)C2 | lower range
* CCC1=C[C@@H]2Cc3nc4ccccc4c(N)c3[C@H](C1)C2 | lower range
* CCC1=C[C@@H]2Cc3nc4cc(C)ccc4c(N)c3[C@H](C1)C2 | lower range
* CC(=O)NC1C2C=C(C)CC1c1c(nc3cc(Cl)ccc3c1N)C2 (racemic; form 1) | upper range
* CC1=CC2Cc3nc4cc(Cl)ccc4c(N)c3C(C1)C2N (racemic; form 1) | middle range
* CC1=CC2Cc3nc4cc(Cl)ccc4c(N)c3C(C1)C2NS(C)(=O)=O (racemic; form 2) | upper range
* CC1=CC2Cc3nc4cc(Cl)ccc4c(N)c3C(C1)C2N (racemic; form 2) | middle range

====

Biological target: Acetylcholinesterase (Bos taurus)
Sequence (P23795 whole entry): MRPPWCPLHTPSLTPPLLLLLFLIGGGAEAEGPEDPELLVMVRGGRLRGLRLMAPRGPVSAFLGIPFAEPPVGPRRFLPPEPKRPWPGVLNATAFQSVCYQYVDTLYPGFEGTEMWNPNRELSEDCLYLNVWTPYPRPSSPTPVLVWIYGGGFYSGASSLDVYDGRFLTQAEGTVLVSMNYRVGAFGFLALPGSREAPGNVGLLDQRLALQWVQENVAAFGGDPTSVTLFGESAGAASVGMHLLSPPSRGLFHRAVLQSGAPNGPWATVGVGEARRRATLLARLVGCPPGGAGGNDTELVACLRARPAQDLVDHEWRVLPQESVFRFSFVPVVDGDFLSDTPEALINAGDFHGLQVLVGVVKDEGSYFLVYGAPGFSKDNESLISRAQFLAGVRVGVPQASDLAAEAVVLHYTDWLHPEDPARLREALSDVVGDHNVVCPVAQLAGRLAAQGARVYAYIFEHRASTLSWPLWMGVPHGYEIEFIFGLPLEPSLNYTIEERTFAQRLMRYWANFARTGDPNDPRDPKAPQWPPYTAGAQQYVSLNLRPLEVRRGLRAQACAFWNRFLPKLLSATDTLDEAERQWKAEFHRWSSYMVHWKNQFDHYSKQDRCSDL
pIC50: −log10 of the molar value.
VALUE KIND: pIC50

* CC1=C[C@@H]2Cc3nc4cc(Cl)ccc4c(N)c3[C@H](C1)C2 | 8.94
* CC1=CC2Cc3nc4cc(Cl)ccc4c(N)c3C(C1)C2NS(C)(=O)=O (racemic; form 1) | 6.93
* CCC1=CC2Cc3nc4cc(Cl)ccc4c(N)c3C(C1)C2 (racemic) | 8.56

====

target: Acetylcholinesterase (Homo sapiens)
Sequence (P22303 whole entry): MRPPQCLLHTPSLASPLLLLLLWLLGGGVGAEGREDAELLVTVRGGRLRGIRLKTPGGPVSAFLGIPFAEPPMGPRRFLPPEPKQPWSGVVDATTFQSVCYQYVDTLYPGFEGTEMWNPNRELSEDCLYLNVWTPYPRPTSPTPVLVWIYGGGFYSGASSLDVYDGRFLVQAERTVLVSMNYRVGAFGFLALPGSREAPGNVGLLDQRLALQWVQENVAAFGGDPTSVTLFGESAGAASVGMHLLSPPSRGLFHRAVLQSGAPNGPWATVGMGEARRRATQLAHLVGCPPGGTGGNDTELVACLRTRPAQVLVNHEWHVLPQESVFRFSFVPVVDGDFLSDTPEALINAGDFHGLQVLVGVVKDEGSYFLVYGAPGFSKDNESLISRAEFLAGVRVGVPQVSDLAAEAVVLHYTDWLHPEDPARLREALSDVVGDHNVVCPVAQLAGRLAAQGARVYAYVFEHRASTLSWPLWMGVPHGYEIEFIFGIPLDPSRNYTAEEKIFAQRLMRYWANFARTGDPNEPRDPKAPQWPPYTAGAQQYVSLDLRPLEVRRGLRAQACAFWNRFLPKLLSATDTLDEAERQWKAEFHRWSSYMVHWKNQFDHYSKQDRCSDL
Each entry below lists one item and its recorded IC50 value.
VALUE KIND: IC50 (nM)

- CC1=CC2Cc3nc4cc(Cl)ccc4c(N)c3C(C1)C2N (racemic; form 1): 225
- CC1=CC2Cc3nc4cc(Cl)ccc4c(N)c3C(C1)C2NC=O (racemic; form 1): 98
- CC1=CC2Cc3nc4cc(Cl)ccc4c(N)c3C(C1)C2NS(C)(=O)=O (racemic; form 1): 40.5

====

biological target: Cholinesterase (Homo sapiens)
Sequence (P06276 whole entry): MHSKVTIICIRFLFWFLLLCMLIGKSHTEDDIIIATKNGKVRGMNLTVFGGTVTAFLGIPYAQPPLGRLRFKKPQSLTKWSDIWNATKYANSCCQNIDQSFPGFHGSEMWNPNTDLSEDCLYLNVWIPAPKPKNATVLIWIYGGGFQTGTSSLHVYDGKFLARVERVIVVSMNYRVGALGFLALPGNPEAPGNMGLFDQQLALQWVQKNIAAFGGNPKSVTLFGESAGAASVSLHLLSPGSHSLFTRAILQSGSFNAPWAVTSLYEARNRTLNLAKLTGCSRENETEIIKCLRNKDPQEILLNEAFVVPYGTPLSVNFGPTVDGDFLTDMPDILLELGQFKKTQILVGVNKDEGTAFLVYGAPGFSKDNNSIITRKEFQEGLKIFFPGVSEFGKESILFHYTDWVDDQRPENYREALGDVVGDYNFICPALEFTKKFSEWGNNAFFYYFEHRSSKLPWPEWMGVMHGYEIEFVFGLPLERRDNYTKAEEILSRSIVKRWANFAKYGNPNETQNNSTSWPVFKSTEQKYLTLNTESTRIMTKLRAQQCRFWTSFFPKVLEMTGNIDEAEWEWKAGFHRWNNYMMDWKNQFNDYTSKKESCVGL
VALUE KIND: log10(IC50) (log10 of the value in µM)

• CC1=CC2Cc3nc4cc(Cl)ccc4c(N)c3C(C1)C2N (racemic; form 2) = -0.22
• CC1=CC2Cc3nc4cc(Cl)ccc4c(N)c3C(C1)C2N (racemic; form 1) = 0.81
• CC12CC3Cc4nc5cc(Cl)ccc5c(N)c4C(C1)C3N2S(C)(=O)=O (racemic) = 0.96
• CC(=O)NC1C2C=C(C)CC1c1c(nc3cc(Cl)ccc3c1N)C2 (racemic; form 1) = 0.93
• CC1=CC2Cc3nc4cc(Cl)ccc4c(N)c3C(C1)C2NC=O (racemic; form 2) = 0.60
